Provide the reported Cell-free Assay IC50 (concentration required for 50% inhibition of Aβ40 production) of each item.
system: γ-secretase (detergent-solubilized membranes from HeLa cells)
test description: cell-based or functional assay
Starred links: 1 amine or outer side, 2 acyl side, 3 side chain; linkers in the order of their positions; H or OH if unused. Non-standard residues stand in square brackets, D forms with d. *: point of attachment. dThr(OBz) = D-threonine with an O-benzyl (OBz) group, C[C@H](OCc1ccccc1)[C@@H](N[*:1])C(=O)[*:2]; Thr(OBz) = threonine with O-benzyl ester (OBz); Boc = CC(C)(C)OC(=O)*; Aib = CC(C)(N)C(=O)O
Numbers only, in nM.

Batch request: Cell-free Assay IC50 (concentration required for 50% inhibition of Aβ40 production) per item, same order as input.
1. Boc-[Aib]VG[Aib]VVI[Aib][Thr(OBz)]V[Aib]VI[Aib]-OMe [L-peptide Boc-Aib-Val-Gly-Aib-Val-Val-Ile-Aib-Thr(OBz)-Val-Aib-Val-Ile-Aib-OMe (SEQ ID NO:19)]
2. Boc-[Aib][dV]G[Aib][dV][dV][dI][Aib][dThr(OBz)][dV][Aib][dV][dI][Aib]-OMe (SMILES CC[C@@H](C)[C@@H](NC(=O)[C@H](NC(=O)[C@H](NC(=O)C(C)(C)NC(=O)CNC(=O)[C@H](NC(=O)C(C)(C)NC(=O)OC(C)(C)C)C(C)C)C(C)C)C(C)C)C(=O)NC(C)(C)C(=O)N[C@@H](C(=O)N[C@@H](C(=O)NC(C)(C)C(=O)N[C@@H](C(=O)N[C@@H](C(=O)NC(C)(C)C(=O)OC)[C@H](C)CC)C(C)C)C(C)C)[C@H](C)OCc1ccccc1) [D-peptide Boc-Aib-Val-Gly-Aib-Val-Val-Ile-Aib-Thr(OBz)-Val-Aib-Val-Ile-Aib-OMe (SEQ ID NO:19)]
3. Boc-[dV][dV][dI][Aib][dThr(OBz)][dV][Aib][dV][dI][Aib]-OMe (SMILES CC[C@@H](C)[C@@H](NC(=O)[C@H](NC(=O)[C@H](NC(=O)OC(C)(C)C)C(C)C)C(C)C)C(=O)NC(C)(C)C(=O)N[C@@H](C(=O)N[C@@H](C(=O)NC(C)(C)C(=O)N[C@@H](C(=O)N[C@@H](C(=O)NC(C)(C)C(=O)OC)[C@H](C)CC)C(C)C)C(C)C)[C@H](C)OCc1ccccc1) [D-peptide Boc-Val-Val-Ile-Aib-Thr(OBz)-Val-Aib-Val-Ile-Aib-OMe (SEQ ID NO:15)]

1: 910; 2: 14; 3: 25
